Test system: SJSA-1 cells
Protocol Text: Cell lysis by peptidomimetic macrocycles (LDH release)
Format: cell-based
Condition Context: 6.25 uM, 1 h at 37C
Where a SMILES comes first, the peptide text is derived from it. Bridges are numbered along the chain shown (N, C = ends). [ ]: non-standard residue; d: D form. R8 = C=CCCCCCC[C@@](C)(N)C(=O)O; S5 = C=CCCC[C@](C)(N)C(=O)O
Readout Kind: 6.25 uM % Lysed cells (1 h LDH)

Given the compound CC(=O)N[C@@H](CC(C)C)C(=O)N[C@H](C(=O)N[C@@H](Cc1ccccc1)C(=O)N[C@]1(C)CCCCCCC=CCCC[C@@](C)(C(=O)N[C@@H](C)C(=O)N[C@@H](Cc2c[nH]cn2)C(=O)N[C@@H](Cc2ccccc2)C(=O)N[C@@H](C)C(N)=O)NC(=O)[C@H](CC(C)C)NC(=O)[C@H](CCC(N)=O)NC(=O)[C@H](C(C)C)NC(=O)[C@H](Cc2c[nH]c3ccccc23)NC(=O)[C@H](Cc2c[nH]cn2)NC(=O)[C@H](C)NC1=O)[C@@H](C)O [compound 190] (Ac-LTF[R8]AHWVQL[S5]AHFA-NH2; staple 4-11) , write its reported 6.25 uM % Lysed cells (1 h LDH).
−1%

----------
Reported pIC50 values for the following molecules.
Assay System: MDM2 (Homo sapiens, UniProt Q00987)
Sequence (Q00987 1-125): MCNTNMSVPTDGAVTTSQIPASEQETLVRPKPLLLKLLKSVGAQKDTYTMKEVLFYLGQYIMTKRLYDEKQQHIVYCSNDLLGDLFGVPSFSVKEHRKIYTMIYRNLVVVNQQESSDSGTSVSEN
Protocol Text: Competitive fluorescence polarization assay for MDM2
Assay type: binding
Condition Context: competitive FP assay, MDM2; read-out: IC50 (MDM2)
pIC50: −log10 of the molar value. Where a SMILES comes first, the peptide text is derived from it. Bridges are numbered along the chain shown (N, C = ends). [ ]: non-standard residue; d: D form. R8 = C=CCCCCCC[C@@](C)(N)C(=O)O; S5 = C=CCCC[C@](C)(N)C(=O)O; Nle = CCCC[C@H](N)C(=O)O; Ac3c = NC1(C(=O)O)CC1

CCCC[C@H](NC(=O)[C@H](C)NC(=O)[C@H](C)NC(=O)[C@]1(C)CCCC=CCCCCCC[C@@](C)(NC(=O)[C@H](Cc2ccccc2)NC(=O)[C@@H](NC(=O)[C@H](C)NC(C)=O)[C@@H](C)O)C(=O)N[C@@H](CCC(=O)O)C(=O)N[C@@H](Cc2ccc(O)cc2)C(=O)N[C@@H](Cc2c[nH]c3ccccc23)C(=O)N[C@@H](C)C(=O)N[C@@H](CCC(N)=O)C(=O)N[C@@H](CC(C)C)C(=O)N1)C(=O)N[C@@H](C)C(N)=O [compound 370] (Ac-ATF[R8]EYWAQL[S5]AA[Nle]A-NH2; staple 4-11) : 7.00 to 8.00
CC(=O)N[C@@H](CC(C)C)C(=O)N[C@H](C(=O)N[C@@H](Cc1ccccc1)C(=O)N[C@]1(C)CCCCCCC=CCCC[C@@](C)(C(=O)N[C@@H](C)C(=O)N[C@@H](C)C(=O)N[C@@H](Cc2ccccc2)C(=O)N[C@H](C)C(N)=O)NC(=O)[C@H](CC(C)C)NC(=O)[C@H](CCC(N)=O)NC(=O)[C@H](C)NC(=O)[C@H](Cc2c[nH]c3ccccc23)NC(=O)[C@H](Cc2ccc(O)cc2)NC(=O)[C@H](C)NC1=O)[C@@H](C)O (single isomer, unassigned) : > 8.00
CC(=O)N[C@@H](Cc1ccccc1)C(=O)N[C@]1(C)CCCCCCC=CCCC[C@@](C)(C(=O)N[C@@H](C)C(=O)N[C@@H](C)C(=O)N[C@@H](Cc2ccccc2)C(N)=O)NC(=O)[C@H](CC(C)C)NC(=O)C2(CC2)NC(=O)[C@H](CCC(=O)O)NC(=O)[C@H](Cc2c[nH]c3ccccc23)NC(=O)[C@H](Cc2ccc(O)cc2)NC(=O)[C@H](C)NC1=O [compound 18] (Ac-F[R8]AYWE[Ac3c]L[S5]AAF-NH2; staple 2-9) : 7.00 to 8.00
CC[C@H](C)[C@H](NC(=O)[C@H](C)NC(=O)[C@H](C)NC(=O)[C@]1(C)CCCC=CCCCCCC[C@@](C)(NC(=O)[C@H](Cc2ccccc2)NC(=O)[C@@H](NC(=O)[C@H](CC(C)C)NC(C)=O)[C@@H](C)O)C(=O)N[C@@H](C)C(=O)N[C@@H](Cc2ccc(O)cc2)C(=O)N[C@@H](Cc2c[nH]c3ccccc23)C(=O)N[C@@H](C)C(=O)N[C@@H](CCC(N)=O)C(=O)N[C@@H](CC(C)C)C(=O)N1)C(=O)N[C@@H](C)C(N)=O (single isomer, unassigned) : 7.00 to 8.00

Attention now shifts to the item below.
Given the molecule CC(=O)N[C@@H](C(=O)N[C@H](C)C(=O)N[C@H](Cc1c[nH]c2ccccc12)C(=O)N[C@H](Cc1ccc(O)cc1)C(=O)N[C@H](C)C(=O)N[C@]1(C)CCCC=CCCC[C@](C)(C(=O)N[C@H](CC(C)C)C(=O)N[C@H](CCCNC(=N)N)C(N)=O)NC(=O)[C@@H](CCCCN)NC(=O)[C@@H](CCC(=O)O)NC(=O)[C@@H](Cc2ccc(C(F)(F)F)cc2)NC1=O)[C@H](C)O , write its reported pIC50.
6.00 to 7.00

----------
Assay System: MDM2 (Homo sapiens)
Protocol Text: Competitive fluorescence polarization assay for MDM2
Assay type: binding
Condition Context: competitive FP assay, MDM2; read-out: IC50 (MDM2)
pIC50: −log10 of the molar value. Where a SMILES comes first, the peptide text is derived from it. Bridges are numbered along the chain shown (N, C = ends). [ ]: non-standard residue; d: D form. R8 = C=CCCCCCC[C@@](C)(N)C(=O)O; Cba = N[C@@H](CC1CCC1)C(=O)O; S5 = C=CCCC[C@](C)(N)C(=O)O
Readout Kind: pIC50

Given the compound CC[C@H](C)[C@H](NC(=O)[C@H](C)NC(=O)[C@H](C)NC(=O)[C@]1(C)CCCC=CCCCCCC[C@@](C)(NC(=O)[C@H](Cc2ccccc2)NC(=O)[C@@H](NC(=O)[C@H](CC(C)C)NC(C)=O)[C@@H](C)O)C(=O)N[C@@H](C)C(=O)N[C@@H](Cc2ccc(O)cc2)C(=O)N[C@@H](Cc2c[nH]c3ccccc23)C(=O)N[C@@H](C)C(=O)N[C@@H](CCC(N)=O)C(=O)N[C@@H](CC2CCC2)C(=O)N1)C(=O)N[C@H](C)C(N)=O [compound 264] (Ac-LTF[R8]AYWAQ[Cba][S5]AAI[dA]-NH2; staple 4-11) , write its reported pIC50.
7.00 to 8.00

----------
Assay System: MDMX (Homo sapiens, UniProt O15151)
Sequence (O15151 1-125): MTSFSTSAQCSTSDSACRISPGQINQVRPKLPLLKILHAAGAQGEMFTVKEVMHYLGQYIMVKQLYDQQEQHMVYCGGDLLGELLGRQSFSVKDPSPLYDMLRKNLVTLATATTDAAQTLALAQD
Protocol Text: Competitive fluorescence polarization assay for MDMX
Type: binding
Condition Context: competitive FP assay, read-out: Ki (MDMX)
pKi: −log10 of the molar value. Where a SMILES comes first, the peptide text is derived from it. Bridges are numbered along the chain shown (N, C = ends). [ ]: non-standard residue; d: D form. R8 = C=CCCCCCC[C@@](C)(N)C(=O)O; S5 = C=CCCC[C@](C)(N)C(=O)O
Readout Kind: pKi

Given the molecule CC(=O)N[C@@H](CC(C)C)C(=O)N[C@H](C(=O)N[C@@H](Cc1ccccc1)C(=O)N[C@]1(C)CCCCCCC=CCCC[C@@](C)(C(=O)N[C@@H](CO)C(=O)N[C@H](C(=O)N[C@@H](C)C(N)=O)C(C)C)NC(=O)[C@H](CC(C)C)NC(=O)[C@H](CCC(N)=O)NC(=O)[C@H](C)NC(=O)[C@H](Cc2c[nH]c3ccccc23)NC(=O)[C@H](Cc2ccc(O)cc2)NC(=O)[C@H](C(C)C)NC1=O)[C@@H](C)O (single isomer, unassigned) , write its reported pKi.
7.00 to 8.00

Given the molecule CC(=O)N[C@@H](CC(C)C)C(=O)N[C@H](C(=O)N[C@@H](Cc1ccccc1)C(=O)N[C@]1(C)CCCCCCC=CCCC[C@@](C)(C(=O)N[C@@H](C)C(=O)N[C@@H](C)C(=O)N[C@@H](C)C(=O)N[C@@H](C)C(=O)N[C@@H](C)C(=O)N[C@H](C)C(N)=O)NC(=O)[C@H](CC(C)C)NC(=O)[C@H](CC(N)=O)NC(=O)[C@H](C)NC(=O)[C@H](Cc2c[nH]c3ccccc23)NC(=O)[C@H](Cc2ccc(O)cc2)NC(=O)[C@H](CCC(=O)O)NC1=O)[C@@H](C)O [compound 611] (Ac-LTF[R8]EYWANL[S5]AAAAA[dA]-NH2; staple 4-11) , write its reported pKi.
7.00 to 8.00

----------
Assay System: MDM2 (Homo sapiens)
Protocol Text: Competitive fluorescence polarization assay for MDM2
Assay type: binding
Condition Context: competitive FP assay, MDM2; read-out: Ki (MDM2)
Where a SMILES comes first, the peptide text is derived from it. Bridges are numbered along the chain shown (N, C = ends). [ ]: non-standard residue; d: D form. R8 = C=CCCCCCC[C@@](C)(N)C(=O)O; Cba = N[C@@H](CC1CCC1)C(=O)O; S5 = C=CCCC[C@](C)(N)C(=O)O
Readout Kind: Ki

Given the compound CC(=O)N[C@@H](CC(C)C)C(=O)N[C@H](C(=O)N[C@@H](Cc1ccccc1)C(=O)N[C@]1(C)CCCCCCC=CCCC[C@@](C)(C(=O)N[C@@H](CO)C(=O)N[C@@H](CCCNC(=N)N)C(=O)N[C@@H](C)C(N)=O)NC(=O)[C@H](CC2CCC2)NC(=O)[C@H](CCC(N)=O)NC(=O)[C@H](C)NC(=O)[C@H](Cc2c[nH]c3ccccc23)NC(=O)[C@H](Cc2ccc(O)cc2)NC(=O)[C@H](CCC(=O)O)NC1=O)[C@@H](C)O [compound 365] (Ac-LTF[R8]EYWAQ[Cba][S5]SRA-NH2; staple 4-11) , write its reported Ki.
< 10 nM
